Taken from ChEMBL document CHEMBL5236598.

assay.details: Selectivity index, ratio of CC50 for cytotoxicity against human MT4 cells to EC50 for antiviral activity against HIV-1 RES056 harboring RT K103N/Y181C double mutant infected in human MT4 cells
Type: toxicity, cell-based
protocol.conditions: read-out: Ratio CC50/EC50
Items are presented alongside their recorded selectivity ratio.

Sample records with selectivity ratio:
• Cc1cc(C#N)cc(C)c1Oc1nc(NC2CCN(c3c(F)cc([N+](=O)[O-])cc3F)CC2)nc2ccsc12 = < 1
• Cc1cc(C#N)cc(C)c1Oc1nc(NC2CCN(c3ccc(N)cc3F)CC2)nc2ccsc12 = < 1

For Cc1cc(-c2ccc(C#N)cc2)cc(C)c1Oc1nc(Nc2ccc(C#N)c(F)c2)nc2sccc12 the compound record lists selectivity ratio as > 517

For Cc1cc(C#N)cc(C)c1Oc1nc(NC2CCN(c3c(F)cc(N)cc3F)CC2)nc2ccsc12 the compound record lists selectivity ratio as < 1

For Cc1cc(-c2ccc(F)cc2)cc(C)c1Oc1nc(Nc2ccc(C#N)nc2)nc2sccc12 the compound record lists selectivity ratio as < 1
